# reported kon; entries follow
study_system: T1, Human OSM (human, UniProt P13725 26-221)
T1 construct: Recombinant human OSM; also called hOSM; human Oncostatin M
T1 sequence: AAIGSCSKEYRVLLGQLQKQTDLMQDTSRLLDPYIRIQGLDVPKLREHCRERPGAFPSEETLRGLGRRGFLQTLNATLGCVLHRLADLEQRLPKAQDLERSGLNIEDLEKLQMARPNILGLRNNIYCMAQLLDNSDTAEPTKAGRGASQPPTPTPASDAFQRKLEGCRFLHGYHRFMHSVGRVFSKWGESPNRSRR
test_name: BIAcore kinetics
API: value field is a number in M⁻¹ s⁻¹; no unit string.

Take a look at these entries with their results.
[[record]]
binder = "9G2 chimaera (antibody, human IgG1, kappa, V domains shown, Mouse V regions on human gamma 1 wild type and human kappa constant regions; also called 9G2 chimera) VH: EVQLVESGGGLVEPGGSLKLSCAASGFTFSNYAMSWVRQTPEKRLEWVATISDGGSFTYYLDNVKGRFTISRDNAKNNLYLQMSHLKSDDTAMYYCARDVGHTTFWYFDVWGTGTLVTVSS VL: DIVLTQSPVFLVISLGQRATISCRASKSVSASGYNFMHWYQQKPGQPPKVLIKYASNLESGVPARFSGSGSGTDFTLNIHPVEEEDAVTYYCQHSREFPFTFGGGTKLEIKR"
measured = 126000

[[record]]
binder = "anti human OSM mAb S168110G08(1)1A09 (10G8), murine (antibody, V domains shown, Mouse hybridoma mAb; also called 10G8/A9; 10G8.A9) VH: EMQLVESGEGLVEPGGSLKLSCAASGFTFSNYAMSWVRQTPEKSLEWVATISDGGSFTYYLDNVRGRFTISRDNAKNNLYLQMSHLKSDDTAMYYCARDVGHTTFWYFDVWGSGTAVTVSS VL: DIVLTQSPVFLVVSLGQRATISCRASKSVSAAGYNFMHWYQQKPGQPPKVLIKYASNLESGVPARFSGSGSGTDFTLNIHPVEEEDAVTYYCLHSREFPFTFGGGTNLEIK"
measured = 112000

[[record]]
binder = "9G2, murine anti-OSM mAb (antibody, V domains shown, Mouse hybridoma mAb; also called 9G2/C1; 9G2.C1) VH: EVQLVESGGGLVEPGGSLKLSCAASGFTFSNYAMSWVRQTPEKRLEWVATISDGGSFTYYLDNVKGRFTISRDNAKNNLYLQMSHLKSDDTAMYYCARDVGHTTFWYFDVWGTGTTVTVSS VL: DIVLTQSPVFLVISLGQRATISCRASKSVSASGYNFMHWYQQKPGQPPKVLIKYASNLESGVPARFSGSGSGTDFTLNIHPVEEEDAVTYYCQHSREFPFTFGGGTKLEIK"
measured = 75200


Here's the next entry for you.
[ask] Give its kon value. Item: 10G8 chimaera (antibody, human IgG1, kappa, V domains shown, Mouse V regions on human gamma 1 wild type and human kappa constant regions; the entries called VH/VL domain (chimera) are full chains; also called 10G8 chimera; 10G8 Chimæra) VH: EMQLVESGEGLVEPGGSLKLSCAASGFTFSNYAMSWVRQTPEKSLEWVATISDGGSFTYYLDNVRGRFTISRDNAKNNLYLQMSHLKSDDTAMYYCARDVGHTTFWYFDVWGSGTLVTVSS VL: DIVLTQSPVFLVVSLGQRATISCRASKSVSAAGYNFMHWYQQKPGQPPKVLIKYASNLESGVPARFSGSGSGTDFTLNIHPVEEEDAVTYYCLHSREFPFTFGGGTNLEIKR
[reply] 233000

The values you see were collected from patent US20130251724A1.
